system_under_test: Follistatin-related protein 3 (Homo sapiens) (UniProt O95633)
Sequence (O95633 whole entry, looked up): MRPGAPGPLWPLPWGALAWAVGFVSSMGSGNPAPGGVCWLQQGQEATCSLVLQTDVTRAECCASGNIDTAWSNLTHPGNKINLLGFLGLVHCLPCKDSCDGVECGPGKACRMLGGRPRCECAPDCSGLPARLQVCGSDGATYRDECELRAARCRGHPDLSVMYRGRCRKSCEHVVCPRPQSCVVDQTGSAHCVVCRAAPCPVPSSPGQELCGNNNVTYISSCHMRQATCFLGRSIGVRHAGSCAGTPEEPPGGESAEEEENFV
test_summary: FSTL3 binders on small-molecule microarrays, primary screen, biochemical, small-molecule microarray, 635 nm fluorescence (AID 1105);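 also: score merges emission near 667 nm and signal to noise per printed spot across three slides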
experimental_conditions: FSTL3 binding, higher = more signal
quantity: composite z-score
I'd appreciate a reply containing only the number, no unit.

Query string: Recorded composite z-score for CC(c1ccccc1)C(O)C1C=CC2C(=O)NC(=O)C2N1Nc1ccccn1 (centres undefined) , please?
Result string: 1.01

Query string: Recorded composite z-score for CS(=O)(=O)CCOC(=O)C1=CC(c2ccc(CO)cc2)=CC(C2CC2)N(Cc2cc3c(cc2Br)OCO3)C=C1C(=O)OCCS(C)(=O)=O (centres undefined) , please?
Result string: 0.932

Query string: Recorded composite z-score for `C=CCOC(=O)[C@H]1[C@@H]2C(=O)O[C@@H](c3ccccc3)[C@@H](c3ccccc3)N2[C@@H](c2ccc(OCCOC(=O)[C@@H]3C[C@@H]4C(=O)NCC(=O)N4[C@@H]3c3ccc(O)cc3)cc2)[C@]12C(=O)Nc1ccccc12` , please?
Result string: 1.34

Query string: Recorded composite z-score for CN1CCC(CCCO)=CC1c1ccc(CN2CCCC2)cc1 (centres undefined) , please?
Result string: 1.48

* * *

system_under_test: Alpha-bungarotoxin (Bungarus multicinctus) (UniProt P60615)
Sequence (P60615 whole entry, looked up): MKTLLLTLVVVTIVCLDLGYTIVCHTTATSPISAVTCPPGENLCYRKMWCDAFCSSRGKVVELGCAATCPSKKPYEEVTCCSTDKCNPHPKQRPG
test_summary: alpha-bungarotoxin binders on microarray, profiling panel, artefact control for SMM control protein annotation, biochemical, small-molecule microarray, Alexa647 label, 635/667 nm fluorescence (AID 1117)
experimental_conditions: alpha-BTX-A647 binding fluorescence, higher = more signal
quantity: composite z-score
I'd appreciate a reply containing only the number, no unit.

Query string: Recorded composite z-score for Cc1cc(C)c(C(O)C2C=CC3C(=O)N(c4ccccc4)C(=O)C3N2Nc2ccc(C#N)cc2)c(C)c1 (stereo unspecified) , please?
Result string: 1.79

Query string: Recorded composite z-score for `CC(C)C(=C=CC[C@@H](O)c1ccccc1OCCO)C[C@@H](O)c1ccccn1` , please?
Result string: 0.125

Query string: Recorded composite z-score for `COC(=O)[C@@]1(Cc2ccc(OC)cc2)[C@H]2c3cc(C(=O)N4CCCC4)n(Cc4cc(F)cc5c4OCOC5)c3C[C@H]2CN1C(=O)c1ccccc1` , please?
Result string: 0.408

Query string: Recorded composite z-score for `CCCN1C(=O)[C@@]2(CCC(=O)OC(C)(C)C)N=C(c3ccc(OCCCO)cc3)O[C@H]2c2ccccc21` , please?
Result string: 0.285

Query string: Recorded composite z-score for [N-]=[N+]=NCc1ccccc1C[C@]1(C(=O)NCC(O)CO)N=C(c2ccc(OCCCO)cc2)O[C@H]1c1ccccc1N=[N+]=[N-] (stereo partly specified) , please?
Result string: 1.75

Query string: Recorded composite z-score for `C=C[C@H](COC(C)=O)N(Cc1ccc(OC(C)=O)c(OC)c1)S(=O)(=O)c1ccc(Br)cc1` , please?
Result string: 0.998

* * *

test_summary: small-molecule binders of probe aInhba, primary screen, biochemical, small-molecule microarray, 635/667 nm fluorescence (AID 1148);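 also: score merges 667nm spot fluorescence with signal-to-noise for antibody binding to printed compounds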
experimental_conditions: higher = more signal
// label = Condition met if composite z-score is not less than -0.04, otherwise Condition not met

Query string: Decide: is the reported value of composite z-score for `Cc1ccc([C@H]2C(C(=O)O)=C[C@@H](C)N2S(=O)(=O)c2ccc(C)cc2)cc1` equal to or greater than -0.04?
Result string: Condition not met

Query string: Decide: is the reported value of composite z-score for COc1ccc(C(O)C2C=CC3C(=O)N(c4ccccc4)C(=O)C3N2Nc2ccc([N+](=O)[O-])cc2)cc1OCc1ccccc1 (stereo unspecified) equal to or greater than -0.04?
Result string: Condition met

Query string: Decide: is the reported value of composite z-score for `C=CCN1C(=O)[C@]2(O[C@H](CCO)[C@@H]([Si](C)(C)c3ccc(OC)cc3)[C@@H]2C)c2cc(NC(=O)[C@H](C)O)ccc21` equal to or greater than -0.04?
Result string: Condition met

Query string: Decide: is the reported value of composite z-score for `O=C1O[C@@H](c2ccccc2)[C@@H](c2ccccc2)N2[C@@H](c3ccc(O)cc3)[C@]3(C(=O)Nc4ccc(C#CC5(O)CCCCCC5)cc43)[C@@H](C(=O)N3CCCCCCC3)[C@H]12` equal to or greater than -0.04?
Result string: Condition met

Query string: Decide: is the reported value of composite z-score for C=CCC(OC(C)=O)[C@@H]1[C@@H](N(Cc2ccc(-c3ccccc3)cc2)C(=O)Cc2ccc(OC)cc2)c2cc(OCCCO)ccc2N1C(=O)c1ccc2ccccc2n1 (stereo partly specified) equal to or greater than -0.04?
Result string: Condition not met

Query string: Decide: is the reported value of composite z-score for `C=CCNC(=O)[C@@H]1[C@H]2C(=O)O[C@H](c3ccccc3)[C@H](c3ccccc3)N2[C@H](c2ccc(O)cc2)[C@@]12C(=O)N(C(=O)OCCOC)c1ccccc12` equal to or greater than -0.04?
Result string: Condition met
